Documented TGI across a set of compounds
Tested on: MALME-3M melanoma
Assay: NCI tumour cell line growth inhibition, 48 h

Example cases with answers are listed next.
O=C1c2c(O)cccc2C(C(=O)CCCC(=O)C2c3cccc(O)c3C(=O)c3c(O)cccc32)c2cccc(O)c21 ... 2.85 µM
C[N+](C)(N)Cc1csc(-c2ccc(Cl)cc2)n1 ... > 100 µM
C[C@@H]1CCC2[C@@H](C)[C@H](OC(=O)CCC(=O)NCCNC(=O)Cc3cc(=O)oc4cc(N(C)C)ccc34)O[C@@H]3O[C@]4(C)CC[C@@H]1C23OO4 (stereo partly drawn) ... > 100 µM
COc1cc(CCC(=O)NS(=O)(=O)c2ccccc2)cc(OC)c1OC ... > 100 µM
N#CCCCCC12C3C(=O)N(c4ccccc4)C(=O)C3ON1O[C@@H]1C(=O)N(c3ccccc3)C(=O)[C@@H]12 (stereo partly drawn) ... > 100 µM

MALME-3M melanoma / TGI / COc1cc2c(cc1-c1c(C)noc1C)ncc1[nH]c(=O)n([C@H](C)c3ccccn3)c12 : value?
76.2 µM

MALME-3M melanoma / TGI / CCN1CCN(c2cc(C)nc(NCc3cc(Nc4ccnc5cc(Cl)ccc45)ccc3F)n2)CC1 : value?
3.91 µM

MALME-3M melanoma / TGI / CC(=O)O[C@H]1CC[C@H]2[C@@H]3CC[C@H]4Nc5c(cnn5S(C)(=O)=O)C[C@]4(C)[C@H]3CC[C@]12C : value?
> 100 µM

---

System: HT29 colon
Assay: NCI tumour cell line growth inhibition, 48 h
outcome_measure: TGI (µM)
Reply numerically in µM, unit not repeated.

COc1ccc(C2c3c(-c4ccccc4)nn(-c4ccccc4)c3Oc3ncn(N)c(=N)c32)cc1OC (centres undefined) ... 4.32
NCCCn1c2c(c3ccc([N+](=O)[O-])cc3c1=O)C(=O)c1cc(Cl)ccc1-2 ... 0.225
COC(=O)Nc1nc2ccc(NS(=O)(=O)c3ccc(F)cc3)cc2[nH]1 ... 37.4
O=C1/C(=C/c2ccc(C(F)(F)F)cc2)COc2ccc(O)cc21 ... 4.32

// moving on: another record for TGI
Which TGI is listed for CC(C)[C@H](O)C(=O)N[C@H]1Cc2ccc3c(c2)[C@]24C5=C(N=C(O5)[C@H](C(C)C)NC1=O)c1nc(Cl)c(o1)-c1c(Cl)[nH]c5cccc(c15)-c1cccc2c1N[C@H]4O3 ?
0.183

---

Tested on: OVCAR-5 ovarian
Test: NCI tumour cell line growth inhibition, 48 h
Documented TGI across a set of compounds

Example cases with answers are listed next.
CC(=O)O[C@@H]1CC2[C@@H](CCC3Cc4nc5c(nc4C[C@@]32C)CC2CC[C@@H]3C(CC[C@@]4(C)C3CC[C@@H]4C(C)CCCC(C)C)[C@@]2(C)C5)C2C[C@@H]3OC4(CCC(C)CO4)C(C)[C@@H]3[C@]21C (stereo partly drawn) ... > 100 µM
[N-]=[N+]=NC(c1cn(C2CC(O)C(CO)O2)c(=O)[nH]c1=O)C(I)I (stereo not drawn) ... > 100 µM
CCOc1ccc(-n2c(=O)n3c(Nc4ccc(Cl)cc4)nc4c(c(=O)n(C)c(=O)n4C)n3c2=O)cc1 ... > 100 µM
C#CCOc1cccc(Nc2ncnc3c2ncn3C2CCN(C(=O)CCl)C2)c1 (stereo not drawn) ... 31.6 µM
c1cc(-c2cnn3nc(N4CCOCC4)ccc23)nc(NC2CC2)n1 ... > 22.4 µM

Which TGI is listed for C=C(C)C(=O)N1c2ccc(OC)cc2CC1C(=O)OCC (stereo not drawn) ?
> 100 µM

Which TGI is listed for CCOC(=O)C1CCCC1S(=O)(=O)c1ccc(C)cc1 (stereo not drawn) ?
> 100 µM

Which TGI is listed for C/C(CC(=O)Nc1ccc(NC(=O)/C(C)=N/NS(=O)(=O)c2ccc(C)cc2)cc1)=N\NS(=O)(=O)c1ccc(C)cc1 ?
> 100 µM

Which TGI is listed for CC[S+](C)c1ccc(-c2c3nc(c(-c4ccc([S+](C)CC)cc4)c4ccc([nH]4)c(-c4ccc([S+](C)CC)cc4)c4nc(c(-c5ccc([S+](C)CC)cc5)c5ccc2[nH]5)C=C4)C=C3)cc1 (stereo not drawn) ?
65.8 µM

Which TGI is listed for COc1ccc(Cn2c3c(c4c(O)cccc42)C(=O)c2ccccc2-3)cc1 ?
21.6 µM

Which TGI is listed for Cc1[nH]ccc2cc3nc4ccccc4c3cc12 ?
11.9 µM

Which TGI is listed for CC(Nc1cc(=O)n(C)c(=O)[nH]1)c1ccccc1 (stereo not drawn) ?
> 100 µM

Which TGI is listed for CO[C@H]1/C=C/C[C@H](C)[C@@H](C)S(=O)(=O)NC(=O)c2ccc3c(c2)N(C[C@@H]2CC[C@H]21)C[C@@]1(CCCc2cc(Cl)ccc21)CO3 ?
11.9 µM

Which TGI is listed for CC(C)c1ccc(O)c(O)c(=O)c1 (tested in a mixture with another compound) ?
> 100 µM

---

Tested on: MDA-N
Assay: NCI tumour cell line growth inhibition, 48 h
Documented TGI across a set of compounds

Example cases with answers are listed next.
COc1ccc(NCc2c(O)ccc3ccccc23)cc1 ... > 100 µM
CCCCCC/C=C\CCCCCCCCCc1c(O)c(OC)cc(O)c1CN(C)C ... 32.2 µM
O=c1[nH]c2cc([N+](=O)[O-])c(N(CCO)CCO)c([N+](=O)[O-])c2[nH]1 ... > 100 µM
O=C(O)CCc1nc(-c2ccccc2)c(-c2ccccc2)o1 ... > 100 µM

// moving on: another record for TGI
Which TGI is listed for OC(C1CCCC1=N/N=C1/CCCC1C(O)(C(F)(F)Cl)C(F)(F)Cl)(C(F)(F)Cl)C(F)(F)Cl (stereo not drawn) ?
> 10 µM

---

Test system: PC-3 prostate
Test: NCI tumour cell line growth inhibition, 48 h; in the data active = GI50 below about 0.43 µM; inactive = the rest
Valid outcomes are listed here; reply with one: active, inactive

Some solved entries appear below for comparison.
CCCCc1oc2ccccc2c1C(=O)c1cc(I)c(OCCN(CC)CC)c(I)c1 ... inactive
ClC1=C(Cl)C(Cl)=C(Cl)C1=Cc1ccc(Cl)cc1Cl ... active
CC1CCC(C#N)(NOC2=NCCN2)CC1 (stereo not given) ... inactive
CCN1CCN(c2nc(C)cc(N(CCCNc3ccnc4cc(Cl)ccc34)Cc3ccco3)n2)CC1 ... inactive

For CCOC(=O)c1cn2ncnc(Oc3ccc(NC(=O)NCCN(CC)CC)c(Cl)c3)c2c1C , what call appears in the results of this test?
inactive

---

System: UO-31 renal
Experiment: NCI tumour cell line growth inhibition, 48 h
outcome_measure: TGI

Example cases with answers are listed next.
Cn1c(=O)c2[nH]cnc2n(CC(=O)O)c1=O ... > 100 µM
CC(=O)NNc1nc(C)c(C(/C=C/c2ccc(Cl)cc2)=N/NC(=S)NN)s1 ... > 100 µM
COc1cc(C2c3cc4c(cc3OC(N3CCOCC3)C2C)OCO4)cc(OC)c1OC (stereo not drawn) ... 55.2 µM
C[n+]1ccc2[nH]c3ccccc3c2c1 ... > 100 µM
COc1cc(OC)c(NC2=NCCO2)cc1Cl ... > 100 µM

UO-31 renal / TGI / N#CCCCCC12C3C(=O)N(c4ccccc4)C(=O)C3ON1O[C@@H]1C(=O)N(c3ccccc3)C(=O)[C@@H]12 (stereo partly drawn) : value?
> 100 µM

UO-31 renal / TGI / COC(=O)c1cccc2c1Oc1ccccc1S2 : value?
> 100 µM

UO-31 renal / TGI / CN(C(=O)C1CC1)C1C2CN3CCC(O2)C13 (stereo not drawn) : value?
> 100 µM

UO-31 renal / TGI / N/C(=N\N=C/c1cc(Cl)cc(Cl)c1O)NO : value?
13.7 µM

UO-31 renal / TGI / CC1(C)N=C(/C(C#N)=[N+](/[O-])C(=O)c2ccccc2)C(C)(C)N1O : value?
> 100 µM

---

Test system: OVCAR-3 ovarian
Experiment: NCI tumour cell line growth inhibition, 48 h; in the data active = GI50 below about 0.43 µM; inactive = the rest
Valid outcomes are listed here; reply with one: active, inactive

CN1CCN(c2ccc([N+](=O)[O-])c3no[n+]([O-])c23)CC1 ... active
CC1(C)CC(O)CCCCCCOc2c(CN)cccc2NC(=O)c2nc(cnc2N)-c2ccc(cc2)S1(=O)=O (centres undefined) ... active
CC(=O)[CH-]C(=O)c1ccccc1.CC(=O)[CH-]C(=O)c1ccccc1.CC[O-].O=C1C=C([O-])C(=O)c2ccccc21.[Ti+4] ... inactive
CCNC(=O)CCCCC(=O)c1c(C)[nH]c(/C=C2\N=C(c3ccc[nH]3)C=C2OC)c1C ... inactive
Cc1cc(Cl)ccc1Nc1nc(C(F)(F)F)ccc1C(=O)N/N=C/c1ccc(N(C)C)cc1 ... inactive

Now examine the next entry.
For Clc1ccc2c(NCCN3CCN(c4ccnc(N5CCCC5)n4)CC3)ccnc2c1 , what call appears in the results of this test?
inactive
